test system: HOP-92; assay: Cytotoxicity against human HOP92 cells after 48 hrs by sulforhodamine B assay; type: functional; details: HOP-92, 48 h
PROPERTY: GI50 (nM)

[[record]]
smiles_str = "CCN(CC)c1ccc(/C=N/NC(=O)c2cccc(Nc3ccnc(C(F)(F)F)c3)c2)c(O)c1"
test_target = "HOP-92"
value = 1000

[[record]]
smiles_str = "CCOc1cccc(/C=N/NC(=O)Cc2ccc(Nc3ccnc(C(F)(F)F)c3)cc2)c1O"
test_target = "HOP-92"
value = 2000

[[record]]
smiles_str = "CCOc1cccc(/C=N/NC(=O)c2cccc(Nc3ccnc(C(F)(F)F)c3)c2)c1O"
test_target = "HOP-92"
value = 3160

[[record]]
smiles_str = "COc1ccc(C(=O)N/N=C/c2ccc(O)cc2O)cc1Nc1ccnc(C(F)(F)F)c1"
test_target = "HOP-92"
value = 316

[[record]]
smiles_str = "CCN(CC)c1ccc(/C=N/NC(=O)c2ccc(Nc3ccnc(C(F)(F)F)c3)cc2)c(O)c1"
test_target = "HOP-92"
value = 676


---

tested on: ACHN; test: Cytotoxicity against human ACHN cells after 48 hrs by sulforhodamine B assay; assay type: functional
Examples of compounds with documented GI50 follow.
PROPERTY: GI50 (µM)

[[record]]
smiles_str = "COc1cccc(/C=N/NC(=O)c2ccccc2Nc2ccnc(C(F)(F)F)c2)c1O"
test_target = "ACHN"
value = 0.1

[[record]]
smiles_str = "CCOc1cccc(/C=N/NC(=O)Cc2ccc(Nc3ccnc(C(F)(F)F)c3)cc2)c1O"
test_target = "ACHN"
value = 1.58

[[record]]
smiles_str = "CCOc1cccc(/C=N/NC(=O)c2ccccc2Nc2ccnc(C(F)(F)F)c2)c1O"
test_target = "ACHN"
value = 0.316

[[record]]
smiles_str = "O=C(N/N=C/c1ccc(O)cc1O)c1ccc(Nc2ccnc(C(F)(F)F)c2)cc1"
test_target = "ACHN"
value = 31.6

[[record]]
smiles_str = "CCN(CC)c1ccc(/C=N/NC(=O)c2ccccc2Nc2ccnc(C(F)(F)F)c2)c(O)c1"
test_target = "ACHN"
value = 0.0794

[[record]]
smiles_str = "CCN(CC)c1ccc(/C=N/NC(=O)c2cccc(Nc3ccnc(C(F)(F)F)c3)c2)c(O)c1"
test_target = "ACHN"
value = 0.245

[[record]]
smiles_str = "O=C(Cc1ccc(Nc2ccnc(C(F)(F)F)c2)cc1)N/N=C/c1ccccc1O"
test_target = "ACHN"
value = 1.58

[[record]]
smiles_str = "CCN(CC)c1ccc(/C=N/NC(=O)Cc2ccc(Nc3ccnc(C(F)(F)F)c3)cc2)c(O)c1"
test_target = "ACHN"
value = 0.398

[[record]]
smiles_str = "CCOc1cccc(/C=N/NC(=O)c2ccc(Nc3ccnc(C(F)(F)F)c3)cc2)c1O"
test_target = "ACHN"
value = 1


---

test system: PC-3; assay: Cytotoxicity against human PC3 cells after 48 hrs by sulforhodamine B assay; type: functional; settings: PC-3, 48 h
Examples of compounds with documented GI50 follow.
PROPERTY: GI50 (nM)

[[record]]
smiles_str = "O=C(N/N=C/c1ccc(O)cc1O)c1cccc(Nc2ccnc(C(F)(F)F)c2)c1"
test_target = "PC-3"
value = 1260

[[record]]
smiles_str = "CCN(CC)c1ccc(/C=N/NC(=O)Cc2ccc(Nc3ccnc(C(F)(F)F)c3)cc2)c(O)c1"
test_target = "PC-3"
value = 2000

[[record]]
smiles_str = "O=C(Cc1ccc(Nc2ccnc(C(F)(F)F)c2)cc1)N/N=C/c1ccccc1O"
test_target = "PC-3"
value = 794

[[record]]
smiles_str = "CCOc1cccc(/C=N/NC(=O)c2ccccc2Nc2ccnc(C(F)(F)F)c2)c1O"
test_target = "PC-3"
value = 200

[[record]]
smiles_str = "CCN(CC)c1ccc(/C=N/NC(=O)c2ccc(Nc3ccnc(C(F)(F)F)c3)cc2)c(O)c1"
test_target = "PC-3"
value = 501

[[record]]
smiles_str = "CCOc1cccc(/C=N/NC(=O)Cc2ccc(Nc3ccnc(C(F)(F)F)c3)cc2)c1O"
test_target = "PC-3"
value = 2000

